Listed next: entries and their corresponding Relative activity of maturated deamidase (% initial rate).
Target: T1, Chryseobacterium sp-62563 deamidase polypeptide (second polypeptide, deamidase domain), wildtype (Chryseobacterium sp-62563)
T1 sequence: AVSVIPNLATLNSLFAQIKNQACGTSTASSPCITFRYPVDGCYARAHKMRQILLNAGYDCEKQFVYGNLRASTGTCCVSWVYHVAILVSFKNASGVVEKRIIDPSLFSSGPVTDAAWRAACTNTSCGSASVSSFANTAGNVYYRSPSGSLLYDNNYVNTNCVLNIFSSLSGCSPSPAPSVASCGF
Test: cell-based or functional assay
quantity.kind: Relative activity of maturated deamidase (% initial rate)

binder="Chryseobacterium sp-62563 propeptide E67M (protein) NQDPNLVAKESNETAMKDFGKTVPVGIEKEDGKFKISFMVTAQPYEIKDSKENAAYISMIKTAVENMTPIHVFLKANTNEIAKVDKATDDDIRYFKSVFTKEVKEENRK" qualifier_symbol== quantitative_result=37
binder="Chryseobacterium sp-62563 propeptide M39W (protein) NQDPNLVAKESNETAMKDFGKTVPVGIEKEDGKFKISFWVTAQPYEIKDSKENAAYISMIKTAVENETPIHVFLKANTNEIAKVDKATDDDIRYFKSVFTKEVKEENRK" qualifier_symbol== quantitative_result=44
binder="Chryseobacterium sp-62563 propeptide F99W (protein) NQDPNLVAKESNETAMKDFGKTVPVGIEKEDGKFKISFMVTAQPYEIKDSKENAAYISMIKTAVENETPIHVFLKANTNEIAKVDKATDDDIRYFKSVWTKEVKEENRK" qualifier_symbol== quantitative_result=81
binder="Chryseobacterium sp-62563 propeptide V98S (protein) NQDPNLVAKESNETAMKDFGKTVPVGIEKEDGKFKISFMVTAQPYEIKDSKENAAYISMIKTAVENETPIHVFLKANTNEIAKVDKATDDDIRYFKSSFTKEVKEENRK" qualifier_symbol== quantitative_result=98
binder="Chryseobacterium sp-62563 propeptide K96W (protein) NQDPNLVAKESNETAMKDFGKTVPVGIEKEDGKFKISFMVTAQPYEIKDSKENAAYISMIKTAVENETPIHVFLKANTNEIAKVDKATDDDIRYFWSVFTKEVKEENRK" qualifier_symbol== quantitative_result=51
binder="Chryseobacterium sp-62563 propeptide Y45G (protein) NQDPNLVAKESNETAMKDFGKTVPVGIEKEDGKFKISFMVTAQPGEIKDSKENAAYISMIKTAVENETPIHVFLKANTNEIAKVDKATDDDIRYFKSVFTKEVKEENRK" qualifier_symbol=> quantitative_result=100
binder="Chryseobacterium sp-62563 propeptide P69L (protein) NQDPNLVAKESNETAMKDFGKTVPVGIEKEDGKFKISFMVTAQPYEIKDSKENAAYISMIKTAVENETLIHVFLKANTNEIAKVDKATDDDIRYFKSVFTKEVKEENRK" qualifier_symbol== quantitative_result=43
binder="Chryseobacterium sp-62563 propeptide K33E (protein) NQDPNLVAKESNETAMKDFGKTVPVGIEKEDGEFKISFMVTAQPYEIKDSKENAAYISMIKTAVENETPIHVFLKANTNEIAKVDKATDDDIRYFKSVFTKEVKEENRK" qualifier_symbol== quantitative_result=66
binder="Chryseobacterium sp-62563 propeptide E67C (protein) NQDPNLVAKESNETAMKDFGKTVPVGIEKEDGKFKISFMVTAQPYEIKDSKENAAYISMIKTAVENCTPIHVFLKANTNEIAKVDKATDDDIRYFKSVFTKEVKEENRK" qualifier_symbol== quantitative_result=46
binder="Chryseobacterium sp-62563 propeptide S58P (protein) NQDPNLVAKESNETAMKDFGKTVPVGIEKEDGKFKISFMVTAQPYEIKDSKENAAYIPMIKTAVENETPIHVFLKANTNEIAKVDKATDDDIRYFKSVFTKEVKEENRK" qualifier_symbol== quantitative_result=42
binder="Chryseobacterium sp-62563 propeptide K101Y (protein) NQDPNLVAKESNETAMKDFGKTVPVGIEKEDGKFKISFMVTAQPYEIKDSKENAAYISMIKTAVENETPIHVFLKANTNEIAKVDKATDDDIRYFKSVFTYEVKEENRK" qualifier_symbol== quantitative_result=46
binder="Chryseobacterium sp-62563 propeptide E67V (protein) NQDPNLVAKESNETAMKDFGKTVPVGIEKEDGKFKISFMVTAQPYEIKDSKENAAYISMIKTAVENVTPIHVFLKANTNEIAKVDKATDDDIRYFKSVFTKEVKEENRK" qualifier_symbol== quantitative_result=27
binder="Chryseobacterium sp-62563 propeptide D91Q (protein) NQDPNLVAKESNETAMKDFGKTVPVGIEKEDGKFKISFMVTAQPYEIKDSKENAAYISMIKTAVENETPIHVFLKANTNEIAKVDKATDDQIRYFKSVFTKEVKEENRK" qualifier_symbol== quantitative_result=28
binder="Chryseobacterium sp-62563 propeptide Y94P (protein) NQDPNLVAKESNETAMKDFGKTVPVGIEKEDGKFKISFMVTAQPYEIKDSKENAAYISMIKTAVENETPIHVFLKANTNEIAKVDKATDDDIRPFKSVFTKEVKEENRK" qualifier_symbol== quantitative_result=76
binder="Chryseobacterium sp-62563 propeptide D18R (protein) NQDPNLVAKESNETAMKRFGKTVPVGIEKEDGKFKISFMVTAQPYEIKDSKENAAYISMIKTAVENETPIHVFLKANTNEIAKVDKATDDDIRYFKSVFTKEVKEENRK" qualifier_symbol== quantitative_result=51
binder="Chryseobacterium sp-62563 propeptide D18M (protein) NQDPNLVAKESNETAMKMFGKTVPVGIEKEDGKFKISFMVTAQPYEIKDSKENAAYISMIKTAVENETPIHVFLKANTNEIAKVDKATDDDIRYFKSVFTKEVKEENRK" qualifier_symbol== quantitative_result=34

The values you see were collected from patent US20250215412A1.
